target: human melanocortin-1 receptor (human) (UniProt Q01726); test: [I125]-NDP-α-MSH competition, hMC1r HEK-293 membranes
Sequence (Q01726 whole entry): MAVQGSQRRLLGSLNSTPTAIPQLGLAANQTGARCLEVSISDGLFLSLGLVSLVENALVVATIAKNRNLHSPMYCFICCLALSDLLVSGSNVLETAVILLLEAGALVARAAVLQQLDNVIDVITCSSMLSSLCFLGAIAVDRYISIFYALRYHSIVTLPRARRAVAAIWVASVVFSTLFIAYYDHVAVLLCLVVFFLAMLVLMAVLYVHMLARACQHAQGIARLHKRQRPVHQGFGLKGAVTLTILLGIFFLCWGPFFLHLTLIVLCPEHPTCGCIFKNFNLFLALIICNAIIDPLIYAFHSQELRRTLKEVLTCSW
Bridge positions count the residues as written; N and C are the ends. Square brackets hold non-standard residues; d marks the D form. Nle = CCCC[C@H](N)C(=O)O; Dab = NCC[C@H](N)C(=O)O
Attribute: pKi
Here pKi is given on a logarithmic scale as minus log10 of the concentration in mol/L.

>  <binder>
Ac-[Nle]EP[dF]R[Dab]W-NH2 (lactam 2-6; SMILES CCCC[C@H](NC(C)=O)C(=O)N[C@H]1CCC(=O)NCC[C@@H](C(=O)N[C@@H](Cc2c[nH]c3ccccc23)C(N)=O)NC(=O)[C@H](CCCNC(=N)N)NC(=O)[C@@H](Cc2ccccc2)NC(=O)[C@@H]2CCCN2C1=O) [Ac-Nle-cyclo(Glu-Pro-D-Phe-Arg-Dab)-Trp-NH2]

>  <pKi>
8.52

$$$$

Q: Note pKi for the binder shown: Ac-[Nle]EH[dF]A[Dab]W-NH2 (lactam 2-6; SMILES CCCC[C@H](NC(C)=O)C(=O)N[C@H]1CCC(=O)NCC[C@@H](C(=O)N[C@@H](Cc2c[nH]c3ccccc23)C(N)=O)NC(=O)[C@H](C)NC(=O)[C@@H](Cc2ccccc2)NC(=O)[C@H](Cc2c[nH]cn2)NC1=O) [Ac-Nle-cyclo(Glu-His-D-Phe-Ala-Dab)-Trp-NH2]
A: 9.10

Q: // Input: Ac-[Nle]EH[dF]R[Dab]K-NH2 (lactam 2-6; SMILES CCCC[C@H](NC(C)=O)C(=O)N[C@H]1CCC(=O)NCC[C@@H](C(=O)N[C@@H](CCCCN)C(N)=O)NC(=O)[C@H](CCCNC(=N)N)NC(=O)[C@@H](Cc2ccccc2)NC(=O)[C@H](Cc2c[nH]cn2)NC1=O) [Ac-Nle-cyclo(Glu-His-D-Phe-Arg-Dab)-Lys-NH2] . Output its pKi only.
A: 8.70
